Property: zone of inhibition at 400 µg/disc; scope: individual molecules
System: S. aureus ATCC 6538
procedureSummary: disc diffusion method
Type: cell-based, Staphylococcus aureus
assaySetup: Staphylococcus aureus, ATCC6538, applied 400 µg per disc, dash = lack of the growth inhibition area, read-out: diameter of growth inhibitory zone (GIZ)
Entry format: amount then unit.

Some solved cases for reference:
### Prompt Hello, I am looking for reported zone of inhibition at 400 µg/disc with S. aureus ATCC 6538 for `C=C(C)CNC(=S)NCCc1c[nH]c2ccccc12` . Could you help?
### Response 11 mm

### Prompt Hello, I am looking for reported zone of inhibition at 400 µg/disc with S. aureus ATCC 6538 for `S=C(NCCc1c[nH]c2ccccc12)Nc1ccccc1Br` . Could you help?
### Response 12 mm

### Prompt Hello, I am looking for reported zone of inhibition at 400 µg/disc with S. aureus ATCC 6538 for `S=C(NCCc1c[nH]c2ccccc12)Nc1cccc(Cl)c1` . Could you help?
### Response 13 mm

API: the following record is the query input.
### Prompt Hello, I am looking for reported zone of inhibition at 400 µg/disc with S. aureus ATCC 6538 for `S=C(NCCc1c[nH]c2ccccc12)Nc1ccc(Cl)c(Cl)c1` . Could you help?
### Response 16 mm

----------
Property: pEC50; scope: individual compounds
System: VSV
procedureSummary: microbe, parasite or virus in culture
Assay type: cell-based
assaySetup: Vesicular stomatitis virus, Vero 76, read-out: VSV EC50
pEC50: −log10 of the molar value.

Some solved cases for reference:
### Prompt State the recorded pEC50 for this entry: `Fc1cccc(NC(=S)NCCc2c[nH]c3ccccc23)c1`
### Response < 4.22

### Prompt State the recorded pEC50 for this entry: `Cc1ccc(Cl)cc1NC(=S)NCCc1c[nH]c2ccccc12`
### Response < 4.77

### Prompt State the recorded pEC50 for this entry: `S=C(NCCc1c[nH]c2ccccc12)NC1CCCCC1`
### Response < 4.85

### Prompt State the recorded pEC50 for this entry: `C=C(C)CNC(=S)NCCc1c[nH]c2ccccc12`
### Response < 4.05

API: the following record is the query input.
### Prompt State the recorded pEC50 for this entry: `S=C(NCCc1c[nH]c2ccccc12)Nc1cccc(Br)c1`
### Response < 4.92

----------
procedureSummary: in vitro
assaySetup: human
Criterion: CC50 strictly less than 40 µM. Met: satisfied. Not met: not satisfied.

### Prompt Given `S=C(NCCc1ccccc1)NCCc1c[nH]c2ccccc12` , is recorded CC50 strictly lower than 40 µM?
### Response not satisfied

Next:
### Prompt Given `S=C(NCCc1c[nH]c2ccccc12)NC1CCCCC1` , is recorded CC50 strictly lower than 40 µM?
### Response not satisfied

### Prompt Given `S=C(NCCc1c[nH]c2ccccc12)Nc1ccc(Cl)c(Cl)c1` , is recorded CC50 strictly lower than 40 µM?
### Response not satisfied

### Prompt Given `Cc1ccc(Cl)cc1NC(=S)NCCc1c[nH]c2ccccc12` , is recorded CC50 strictly lower than 40 µM?
### Response not satisfied

### Prompt Given `S=C(NCCc1c[nH]c2ccccc12)Nc1ccccc1` , is recorded CC50 strictly lower than 40 µM?
### Response satisfied

### Prompt Given `S=C(NCCc1c[nH]c2ccccc12)Nc1cccc(Br)c1` , is recorded CC50 strictly lower than 40 µM?
### Response not satisfied

### Prompt Given `S=C(NCCc1c[nH]c2ccccc12)Nc1ccc(I)cc1` , is recorded CC50 strictly lower than 40 µM?
### Response satisfied

### Prompt Given `S=C(NCCc1c[nH]c2ccccc12)Nc1ccccc1Br` , is recorded CC50 strictly lower than 40 µM?
### Response not satisfied

### Prompt Given `S=C(NCCc1c[nH]c2ccccc12)Nc1ccc(Br)cc1` , is recorded CC50 strictly lower than 40 µM?
### Response not satisfied

----------
Test system: RSV
procedureSummary: microbe, parasite or virus in culture
Type: cell-based, human respiratory syncytial virus
assaySetup: human respiratory syncytial virus, Vero 76, read-out: RSV EC50
measurementName: EC50

Some solved cases for reference:
### Prompt State the recorded EC50 for this entry: `C=C(C)CNC(=S)NCCc1c[nH]c2ccccc12`
### Response > 89 µM

### Prompt State the recorded EC50 for this entry: `Fc1ccccc1NC(=S)NCCc1c[nH]c2ccccc12`
### Response > 73 µM

### Prompt State the recorded EC50 for this entry: `CCCCc1ccc(NC(=S)NCCc2c[nH]c3ccccc23)c(C)c1`
### Response > 12 µM

### Prompt State the recorded EC50 for this entry: `S=C(NCCc1c[nH]c2ccccc12)Nc1ccc(Br)cc1`
### Response > 13 µM

### Prompt State the recorded EC50 for this entry: `S=C(NCCc1c[nH]c2ccccc12)Nc1ccc(I)cc1`
### Response > 11 µM

### Prompt State the recorded EC50 for this entry: `Cc1ccc(Cl)cc1NC(=S)NCCc1c[nH]c2ccccc12`
### Response > 17 µM

### Prompt State the recorded EC50 for this entry: `Fc1ccc(NC(=S)NCCc2c[nH]c3ccccc23)cc1`
### Response > 53 µM

### Prompt State the recorded EC50 for this entry: `CCNC(=S)NCCc1c[nH]c2ccccc12`
### Response > 100 µM

Next:
### Prompt State the recorded EC50 for this entry: `S=C(NCCc1c[nH]c2ccccc12)Nc1ccccc1`
### Response > 64 µM

### Prompt State the recorded EC50 for this entry: `S=C(NCCc1c[nH]c2ccccc12)Nc1ccccc1Br`
### Response 20 µM

### Prompt State the recorded EC50 for this entry: `CNC(=S)NCCc1c[nH]c2ccccc12`
### Response > 100 µM

----------
Property: CC50; scope: individual compounds
Test system: BHK cells
procedureSummary: Cytotoxicity, MTT method
assaySetup: read-out: BHK CC50; reduce the proliferation of mock-infected BHK cells by 50% (Table 6)

### Prompt State the recorded CC50 for this entry: `CCNC(=S)NCCc1c[nH]c2ccccc12`
### Response > 100 µM

API: the following record is the query input.
### Prompt State the recorded CC50 for this entry: `CNC(=S)NCCc1c[nH]c2ccccc12`
### Response > 100 µM

----------
System: S. epidermidis (MRSE)
procedureSummary: MIC against hospital strains
assaySetup: Staphylococcus epidermidis, hospital S. epidermidis MRSE strain 431/11
measurementName: MIC (µg/mL)
All answers are understood in µg/mL, so give the number only.

Some solved cases for reference:
### Prompt State the recorded MIC for this entry: `S=C(NCCc1c[nH]c2ccccc12)Nc1ccc(Cl)c(Cl)c1`
### Response 6.25

### Prompt State the recorded MIC for this entry: `S=C(NCCc1c[nH]c2ccccc12)Nc1ccccc1Br`
### Response 50

### Prompt State the recorded MIC for this entry: `S=C(NCCc1c[nH]c2ccccc12)Nc1cccc(Cl)c1`
### Response 6.25

API: the following record is the query input.
### Prompt State the recorded MIC for this entry: `C=C(C)CNC(=S)NCCc1c[nH]c2ccccc12`
### Response 100

----------
Property: CC50; scope: individual compounds
procedureSummary: Cytotoxicity, MTT method
assaySetup: African green monkey (Cercopithecus aethiops)
All answers are understood in µM, so give the number only.

### Prompt State the recorded CC50 for this entry: COc1ccc(NC(=S)NCCc2c[nH]c3ccccc23)cc1 [Compound 2]
### Response 56

### Prompt State the recorded CC50 for this entry: O=c1cnn([C@@H]2O[C@H](CO)[C@@H](O)[C@H]2O)c(=O)[nH]1 [6-Aza-uridine, 6-azauridine, reference compound]
### Response 12

Next:
### Prompt State the recorded CC50 for this entry: Cc1ccc(NC(=S)NCCc2c[nH]c3ccccc23)cc1 [Compound 3]
### Response 75

----------
Test system: VSV
procedureSummary: microbe, parasite or virus in culture
Format: cell-based
assaySetup: Vesicular stomatitis virus, Vero 76, read-out: VSV EC50
pEC50: −log10 of the molar value.
measurementName: pEC50

Some solved cases for reference:
### Prompt Hello, I am looking for reported pEC50 with VSV for S=C(NCCc1c[nH]c2ccccc12)Nc1ccc(Cl)c(Cl)c1 [Compound 6] . Could you help?
### Response < 4.89

### Prompt Hello, I am looking for reported pEC50 with VSV for Fc1ccc(NC(=S)NCCc2c[nH]c3ccccc23)cc1 [Compound 17] . Could you help?
### Response < 4.28

### Prompt Hello, I am looking for reported pEC50 with VSV for FC(F)(F)c1cccc(NC(=S)NCCc2c[nH]c3ccccc23)c1 [Compound 24] . Could you help?
### Response < 4.80

### Prompt Hello, I am looking for reported pEC50 with VSV for Cc1ccc(NC(=S)NCCc2c[nH]c3ccccc23)cc1Cl [Compound 23] . Could you help?
### Response < 4.77

### Prompt Hello, I am looking for reported pEC50 with VSV for S=C(NCCc1ccccc1)NCCc1c[nH]c2ccccc12 [Compound 16] . Could you help?
### Response < 4.00

Next:
### Prompt Hello, I am looking for reported pEC50 with VSV for Fc1ccccc1NC(=S)NCCc1c[nH]c2ccccc12 [Compound 11] . Could you help?
### Response < 4.14

### Prompt Hello, I am looking for reported pEC50 with VSV for C=CCNC(=S)NCCc1c[nH]c2ccccc12 [Compound 18] . Could you help?
### Response < 4.00

### Prompt Hello, I am looking for reported pEC50 with VSV for O=C(NC(=S)NCCc1c[nH]c2ccccc12)c1ccccc1 [Compound 5] . Could you help?
### Response < 4.54

### Prompt Hello, I am looking for reported pEC50 with VSV for S=C(NCCc1c[nH]c2ccccc12)Nc1ccc(Br)cc1 [Compound 8] . Could you help?
### Response < 4.89

### Prompt Hello, I am looking for reported pEC50 with VSV for S=C(NCCc1c[nH]c2ccccc12)NCc1ccccc1 [Compound 10] . Could you help?
### Response < 4.00

### Prompt Hello, I am looking for reported pEC50 with VSV for S=C(NCCc1c[nH]c2ccccc12)Nc1ccccc1 [Compound 1] . Could you help?
### Response < 4.19

### Prompt Hello, I am looking for reported pEC50 with VSV for CCCCc1ccc(NC(=S)NCCc2c[nH]c3ccccc23)c(C)c1 [Compound 27] . Could you help?
### Response < 4.92

### Prompt Hello, I am looking for reported pEC50 with VSV for S=C(NCCc1c[nH]c2ccccc12)Nc1ccccc1Br [Compound 15] . Could you help?
### Response < 4.34

### Prompt Hello, I am looking for reported pEC50 with VSV for COc1ccc(NC(=S)NCCc2c[nH]c3ccccc23)cc1 [Compound 2] . Could you help?
### Response < 4.25

### Prompt Hello, I am looking for reported pEC50 with VSV for S=C(NCCc1c[nH]c2ccccc12)Nc1ccc(I)cc1 [Compound 21] . Could you help?
### Response < 4.96
